Cited source: paper PMC6405172

Tested on: Leishmania donovani intracellular amastigotes
Assay: Intracellular amastigote assay in infected RAW 264.7 cells
Type: cell-based
Conditions: CC50 Raw 264.7 / IC50 intracellular amastigotes
Protocol: Amastigote cultures were prepared as reported by Jain and colleagues. Briefly, Raw 264.7 cells (4 x 10^7 cells) were seeded in 4 chamber slides and 1 x 10^7 cells in 96 well plates and incubated for 24 hours at 37°C in 5% CO2. […] The slides were viewed by fluorescence microscopy and the number of infected macrophages counted using ImageJ Software to determine the infectivity index and IC50 values for amastigotes. […]
Field: Selectivity Index (CC50/IC50), amastigotes. Provide a value for each of the compounds that follow.

Worked examples, 2 compounds total:
{"columns": ["compound", "result"],
 "data": [
  ["O=C(/C=C/c1ccc(O)c(O)c1)O[C@H](Cc1ccc(O)c(O)c1)C(=O)O [Rosmarinic acid, rosmarinic acid]", 12.70],
  ["O=C(/C=C/c1ccc(O)c(O)c1)O[C@@H]1C[C@](O)(C(=O)O)C[C@@H](O)[C@H]1O [Chlorogenic acid, chlorogenic acid]", 1.11]
]}

Attention now shifts to the item below.
Tested system Leishmania donovani intracellular amastigotes; Selectivity Index (CC50/IC50), amastigotes recorded for CC(=O)N(O)CCCCCNC(=O)CCC(=O)N(O)CCCCCNC(=O)CCC(=O)N(O)CCCCCN [Deferoxamine, deferoxamine, reference compound] was 0.73
